// reported Raw Signal per item
# assayed-target: Human IP6K1 (Homo sapiens)
# Construct: GST (N, cleaved yes); made in house; host or cells: C43 E. coli, pGEX-6P-2
# Sequence (Q92551 whole entry): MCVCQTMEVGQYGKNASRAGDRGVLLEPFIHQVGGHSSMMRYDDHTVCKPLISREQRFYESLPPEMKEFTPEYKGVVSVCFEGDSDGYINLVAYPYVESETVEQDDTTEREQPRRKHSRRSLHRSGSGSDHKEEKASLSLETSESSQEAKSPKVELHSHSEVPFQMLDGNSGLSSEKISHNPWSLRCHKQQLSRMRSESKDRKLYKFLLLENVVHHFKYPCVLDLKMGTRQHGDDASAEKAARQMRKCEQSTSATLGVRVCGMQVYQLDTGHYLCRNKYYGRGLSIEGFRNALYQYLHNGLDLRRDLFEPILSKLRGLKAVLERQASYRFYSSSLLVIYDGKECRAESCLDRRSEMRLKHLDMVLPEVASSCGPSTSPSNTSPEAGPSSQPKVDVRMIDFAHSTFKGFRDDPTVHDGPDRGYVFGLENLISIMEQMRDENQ
# protocol-summary: IP6K1 high-throughput screen of the Sigma LOPAC (ADP-Glo Max, single point);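 further: final compound concentration 10µM in 5% DMSO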
# Assay type: biochemical
# measurement-context: LOPAC single-point screen, ADP-Glo Max raw signal per well
Where a name gives a salt, the structure may show the parent alone.

Worked examples follow.
{"columns": ["molecule", "Raw Signal"],
 "data": [
  ["CN(C)CCCCSC(=N)N.Cl.Cl [SKF 91488 dihydrochloride]", 55411],
  ["Cc1cc(C(C)(C)C)c(O)c(C)c1CC1=NCCN1 [Oxymetazoline hydrochloride]", 52488]
]}

Exercise: Respond only with Raw Signal recorded for NC(N)=Nc1nc(CSCCC(N)=NS(N)(=O)=O)cs1
Key: 53127

Exercise: Respond only with Raw Signal recorded for CCN(CC)C(C)C(=O)N1c2ccccc2Sc2ccccc21.Cl (centres unmarked)
Key: 55206

Exercise: Respond only with Raw Signal recorded for CCN(c1nc(N)c(C(=O)NC(=N)N)nc1Cl)C(C)C [5-(N-Ethyl-N-isopropyl)amiloride]
Key: 57414
